growth inhibition by entry:
EXPERIMENT_NOTES: NCI Yeast Anticancer Drug Screen. Data for the bub3 strain (AID 167)
MEASUREMENT_CONTEXT: S. cerevisiae bub3 mutant strain, at 50.0 µM, stronger effect = higher value
Experimental: Growth inhibition of yeast strains with defined genetic alterations is measured as a screen for potential anti-cancer activity. Selected strains with alterations in DNA damage repair or cell cycle control were exposed to compounds and growth inhibition was measured relative to vehicle treated controls. The strain used in this assay is bub3
The panel holds about 79,000 compounds, 15% with a hit somewhere; the sample as a whole holds those more often.
Note: unit % is implicit; provide only the numeric part.

Known results for molecules:
{"MOLECULE": "[Cl][Pt+2][Cl].[NH-]C1CCC1[NH-] (stereo not given)", "UNITS_LABEL": "%", "growth inhibition": -4.1}
{"MOLECULE": "O=C(c1nc2ccc(Cl)cc2[nH]c1=O)C(O)c1ccc2c(c1)OCO2 (stereo not given)", "UNITS_LABEL": "%", "growth inhibition": -13.2}

growth inhibition for `O=C(Cc1ccccc1)Nc1ccc([N+](=O)[O-])cc1Cl` ?
6.5

What do you get for O=C(O)C(C1=CCCCC1)C1(O)CCCCC1 (stereo not given) ?
-0.65

What do you get for COC(=O)c1c([N+](=O)[O-])ncn1C1CC(OC(C)=O)C(COC(C)=O)O1 (stereo not given) ?
-17.7

What do you get for `Nc1nnnn1NC(=O)c1ccccc1` ?
-6

====

EXPERIMENT_NOTES: NCI Yeast Anticancer Drug Screen. Data for the mec2-1 strain (AID 157)
MEASUREMENT_CONTEXT: S. cerevisiae mec2-1 strain, at 50.0 µM, stronger effect = higher value
Description: Growth inhibition of yeast strains with defined genetic alterations is measured as a screen for potential anti-cancer activity. Selected strains with alterations in DNA damage repair or cell cycle control were exposed to compounds and growth inhibition was measured relative to vehicle treated controls. The strain used in this assay is mec2-1
The panel holds about 79,000 compounds, 15% with a hit somewhere; the sample as a whole holds those more often.
growth inhibition by entry:
Note: unit % is implicit; provide only the numeric part.

Known results for molecules:
{"MOLECULE": "COC(=O)C1Cc2ccccc2C1=O (stereo not drawn)", "VALUE_MEASURED": -13.2}
{"MOLECULE": "CCCCC(=O)NCCNC(=O)CCCC", "VALUE_MEASURED": 7}
{"MOLECULE": "Brc1cnc2nc(Cc3ccccc3)[nH]c2c1", "VALUE_MEASURED": 7.7}

growth inhibition for `CCOC(=O)c1ccc(N(C=O)CCC(OCC)OCC)cc1` ?
-5.75

What do you get for `Cc1ccc(NC(=O)NC23CC4CC(CC(F)(C4)C2)C3)cc1` ?
4.45

What do you get for `C[CH2][Sn]([CH2]C)([O]C(=O)c1ccc(OC)c(OC)c1OC)[O]C(=O)c1ccc(OC)c(OC)c1OC` ?
27.6

What do you get for `CCOC(=O)c1c(/N=C/c2ccc(N(C)C)cc2)sc2c1CCCC2` ?
13.8

What do you get for `COc1cc(C=Nc2ccc(C(C)C)cc2)cc(OC)c1OC` ?
13.3

====

EXPERIMENT_NOTES: NCI Yeast Anticancer Drug Screen. Data for the sgs1 mgt1 strain (AID 161);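 note: 0% = growth of cultures given vehicle only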
MEASUREMENT_CONTEXT: S. cerevisiae sgs1 mgt1 strain, at 50.0 µM, stronger effect = higher value
This is part of a sample that, as a whole, favours compounds with a hit. Of some 79,000 tested, about 15% had one in any assay.
QUANTITY_MEASURED: growth inhibition (%)
Note: unit % is implicit; provide only the numeric part.

Known results for compounds:
{"COMPOUND": "CC1=NN(C(=O)c2ccccc2O)C(=O)/C1=C/c1cccc([N+](=O)[O-])c1", "QUANTITY_MEASURED": "growth inhibition", "UNITS_LABEL": "%", "VALUE_MEASURED": 37.1}
{"COMPOUND": "CC(=O)NC(C=O)C(O)C(O)C(O)CO (stereo unspecified)", "QUANTITY_MEASURED": "growth inhibition", "UNITS_LABEL": "%", "VALUE_MEASURED": -11.1}
{"COMPOUND": "CCN(CC)COC(=O)C(C)(C)C", "QUANTITY_MEASURED": "growth inhibition", "UNITS_LABEL": "%", "VALUE_MEASURED": -12.9}

growth inhibition for `O/N=C(\C(=N/O)Nc1ccc(-c2ccc(NC(=N/O)/C(=N\O)c3ccccc3)cc2)cc1)c1ccccc1` ?
-8.5

What do you get for CC1=C(CCC#N)C(=O)C(CCC#N)C(C)(C)C1 (stereo unspecified) ?
-16.6

What do you get for `Cc1ccc(S(=O)(=O)NNCCC#N)cc1` ?
-4.35

What do you get for O=C(O)C(CO)C(CO)C(=O)O (stereo unspecified) ?
-7.05

What do you get for `Cc1cccc(-c2nnc3s/c(=C\c4ccc5c(c4)OCO5)c(=O)n23)c1` ?
-1.45

What do you get for `CC(C)CC(CC(C)C)=NNC(N)=O` ?
9.05

What do you get for `O=C1CC(=O)N(CCc2ccccc2)S(=O)(=O)N1CCc1ccccc1` ?
-14.2

What do you get for `Cn1c(=O)c2c(=O)n3ccccc3nc2n(C)c1=O` ?
72.1
